Reference source for all entries: patent US7166725B2

# Experimental Target: Purified pig DAAO (Sus scrofa)
# Sequence (P00371 whole entry): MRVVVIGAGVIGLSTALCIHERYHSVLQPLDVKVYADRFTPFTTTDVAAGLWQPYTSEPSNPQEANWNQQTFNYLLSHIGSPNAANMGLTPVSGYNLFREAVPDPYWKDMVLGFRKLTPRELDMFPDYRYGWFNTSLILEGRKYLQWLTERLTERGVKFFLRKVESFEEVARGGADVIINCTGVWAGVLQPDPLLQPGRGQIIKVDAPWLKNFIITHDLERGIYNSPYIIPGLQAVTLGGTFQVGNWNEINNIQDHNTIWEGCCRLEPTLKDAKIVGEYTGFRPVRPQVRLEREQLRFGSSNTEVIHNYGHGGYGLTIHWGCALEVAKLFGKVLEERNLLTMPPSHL
pIC50: −log10 of the molar value.
// reported pIC50 per item

Compound: Oc1noc2cc(OCc3ccccc3)ccc12
pIC50: < 4.00
//
Compound: Oc1noc2cc(Br)ccc12
pIC50: > 6.00
//
Compound: COc1cccc2onc(O)c12
pIC50: > 4.00
//
Compound: O=C(O)c1ccc[nH]1 [PYRROLE-2-CARBOXYLIC ACID, reference compound]
pIC50: > 5.00
//
Compound: Oc1noc2cc(Cl)c(Cl)cc12
pIC50: > 7.00
//
Compound: Oc1ccc2c(O)noc2c1
pIC50: > 5.00
//
Compound: Cc1cccc2c(O)noc12
pIC50: < 4.00
//
Compound: Oc1noc2cc(Cl)ccc12 [drawing 38]
pIC50: > 7.00
//
Compound: Cc1cc2onc(O)c2cc1I
pIC50: > 7.00
//
Compound: O=C(Nc1ccc2c(O)noc2c1)OCc1ccccc1
pIC50: < 4.00
//
Compound: Cc1ccc2c(O)noc2c1 [drawing 22]
pIC50: > 6.00
//
Compound: Oc1noc2ccc(CCc3ccccc3)cc12
pIC50: > 4.00
//
Compound: Oc1noc2cc(F)ccc12
pIC50: > 6.00
//
Compound: Oc1noc2cc(Br)c(Cl)cc12
pIC50: > 7.00
//
Compound: Oc1noc2ccc(Br)cc12
pIC50: > 6.00
//
Compound: Oc1noc2c(Cl)cccc12
pIC50: < 4.00
//
Compound: Oc1noc2cc(Cl)c(Br)cc12
pIC50: > 7.00
//
Compound: Oc1noc2ccc(I)cc12
pIC50: > 5.00
//
Compound: O=C(O)c1cc2ccccc2[nH]1 [INDOLE-2-CARBOXYLIC ACID, reference compound]
pIC50: > 5.00
